Biological target: SARS-CoV-2 RBD (RBD-2) (SARS-CoV-2)
Assay: ELISA
result.type: EC50 (µg/mL)
The answer is to be given in µg/mL; state only the numeric part.

Record summary for L6.dP03H10 (antibody, V domains shown) VH: QVQLVQSGAEVKKPGSSVKVSCKASGGTFSIYAITWVRQAPGQGLEWMGGIIPIIGTANYAQKFQGRVTITADKSTSTAYMELSSLRSEDTAVYYCARDFRYCSSTRCYFWFDPWGQGTLVTVSS VL: DIQMTQSPSSLSASVGDRVTITCRASQNISSYLNWYQQEAGKAPKLLIYAASSLQSGVPSRFSGSGSGTDFTLTISSLQPEDFATYYCQQSYSTPRTFGQGTKVDIK : reported EC50 = 0.012
